test system: HEp-2; experiment: Tested in vitro for the cytotoxicity as number of viable cells against Hep-2 cell line after 72 hr treatment at conc. of 10E-6; type: functional; conditions: Homo sapiens, HEp-2, 72 h; read-out: ID50 (the source's name)
Quick rule for you: IC50 under 200 nM gets rule met, anything else gets rule not met.

A selection of reference data follows.
compound: Cl.Cn1cc(NC(=O)c2cc(NC(=O)c3cc(N(CCCl)CCCl)cn3C)cn2C)cc1C(=O)NCCC(=N)N
class: rule not met

compound: Cl.Cn1cc(NC(=O)c2cc(NC(=O)c3cc(NC(=O)c4ccc(N(CCCl)CCCl)cc4)cn3C)cn2C)cc1C(=O)NCCC(=N)N [TALLIMUSTINE CHLORIDE]
class: rule met

compound: Cl.Cn1cc(NC(=O)c2cc(NC(=O)c3cc(NC(=O)c4cc(N(CCCl)CCCl)cs4)cn3C)cn2C)cc1C(=O)NCCC(=N)N
class: rule met

Is 200 nM strictly greater than the compound's reported IC50? compound: N[C@@H](Cc1ccc(N(CCCl)CCCl)cc1)C(=O)O [MELPHALAN]
rule not met

Is 200 nM strictly greater than the compound's reported IC50? compound: Cl.Cn1cc(NC(=O)c2cc(NC(=O)c3cc(NC(=O)c4cc(N(CCCl)CCCl)cn4C)cn3C)cn2C)cc1C(=O)NCCC(=N)N
rule met

Is 200 nM strictly greater than the compound's reported IC50? compound: Cn1cc(NC(=O)c2cc(NC(=O)c3cc(NC=O)cn3C)cn2C)cc1C(=O)NCCC(=N)N [STALLIMYCIN]
rule not met

* * *

Below, each entry is listed alongside its reported log10 OD.
test system: L1210/LPAM; test: Tested in vivo for optimal non-toxic dose against L1210/LPAM cell line in CDF1 mice; assay type: ADME, organism-based; settings: mouse
Recorded OD (log10, mg/kg)

Sample answers from the record:
molecule: N[C@@H](Cc1ccc(N(CCCl)CCCl)cc1)C(=O)O
study_target: L1210/LPAM
meas_value: 1.00

molecule: Cn1cc(NC(=O)c2cc(NC(=O)c3cc(NC=O)cn3C)cn2C)cc1C(=O)NCCC(=N)N
study_target: L1210/LPAM
meas_value: 2.30

molecule: Cl.Cn1cc(NC(=O)c2cc(NC(=O)c3cc(NC(=O)c4cc(N(CCCl)CCCl)cs4)cn3C)cn2C)cc1C(=O)NCCC(=N)N
study_target: L1210/LPAM
meas_value: 0.19

Using the record for Cl.Cn1cc(NC(=O)c2cc(NC(=O)c3cc(N(CCCl)CCCl)cn3C)cn2C)cc1C(=O)NCCC(=N)N , report its log10 OD.
0.19

Using the record for Cl.Cn1cc(NC(=O)c2cc(NC(=O)c3cc(NC(=O)c4ccc(N(CCCl)CCCl)cc4)cn3C)cn2C)cc1C(=O)NCCC(=N)N [TALLIMUSTINE CHLORIDE] , report its log10 OD.
0.49

Using the record for Cl.Cn1cc(NC(=O)c2cc(NC(=O)c3cc(NC(=O)c4cc(N(CCCl)CCCl)cn4C)cn3C)cn2C)cc1C(=O)NCCC(=N)N , report its log10 OD.
-0.41

Source of measurements: ChEMBL document CHEMBL1124685
